# assay.info: Plasma and tumor compound concentrations in CT26 tumor-bearing mice (LC-MS/MS)
# Assay type: in vivo, BALB/c mice
# test.conditions: BALB/c, mouse, tumor, intravenous; 0.187 mg/kg single i.v., 8 h; read-out: Tumor Conc.
Where a name gives a salt, the structure may show the parent alone.
measurement.name: concentration at 8 h (nM)
Supply the numeric figure in nM, leaving out any unit text.

So what does the record say about concentration at 8 h for CCn1nc(C)cc1C(=O)Nc1nc2cc(C(N)=O)cc3c2n1C/C=C/Cn1c(NC(=O)c2cc(C)nn2CC)nc2cc(C(=O)N[C@H]4CC[C@H](C(=O)O)CC4)cc(c21)OCCCO3 [Compound 2, sodium salt] ?
120
